The reported numbers originate from ChEMBL document CHEMBL3639125.

molecular target: Beta-secretase 1 (Homo sapiens); assay: Immunofluorescence Resonance Energy Transfer (FRET) Assay: The FRET assay was performed essentially as described in Gruninger-Leitch et al., Journal of Biological Chemistry (2002) 277(7) 4687-93 (Substrate and inhibitor profile of BACE (beta-secretase) and comparison with other mammalian aspartic proteases). In summary, a peptide is designed that is cleaved by the protease. The peptide is labelled with dabcyl at the N terminus and Lucifer Yellow at the C-terminus, such that for an intact peptide the Lucifer Yellow fluorescence is quenched by the dabcyl. When the peptide is cut by BACE2, the quenching is removed and a fluorescent signal is generated. The assay was performed as described in Grueninger et al. 2002 at pH 4.5 using a substrate concentration of 5 μM. A FRET peptide based on the TMEM27 sequence was devised. dabcyl-QTLEFLKIPS-LucY (SEQ ID NO: 1). […] Conversely, BACE1 had insignificant activity against this peptide.
Sequence (P56817 whole entry): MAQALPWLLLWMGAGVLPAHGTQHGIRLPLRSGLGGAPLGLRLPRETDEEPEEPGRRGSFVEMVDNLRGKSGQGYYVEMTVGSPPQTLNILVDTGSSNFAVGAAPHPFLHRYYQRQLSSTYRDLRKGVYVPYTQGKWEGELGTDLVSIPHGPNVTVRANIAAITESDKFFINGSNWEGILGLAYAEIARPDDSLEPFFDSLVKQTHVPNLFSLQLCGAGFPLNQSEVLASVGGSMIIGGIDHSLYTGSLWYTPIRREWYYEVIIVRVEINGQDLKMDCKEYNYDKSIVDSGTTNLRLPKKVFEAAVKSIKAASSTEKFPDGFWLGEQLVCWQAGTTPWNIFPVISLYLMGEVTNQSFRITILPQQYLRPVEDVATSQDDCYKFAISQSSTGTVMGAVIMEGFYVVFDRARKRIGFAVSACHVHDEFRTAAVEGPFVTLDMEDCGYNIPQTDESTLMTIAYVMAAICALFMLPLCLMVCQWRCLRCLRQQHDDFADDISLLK

smilesRepresentation	uom	IC50
CC1(C)OCC(N)=N[C@](C)(c2cc(Nc3cncc(C(F)(F)F)c3)ccc2F)C1(F)F	nM	1900
